target: Neutrophil collagenase (Homo sapiens, UniProt P22894); assay: Inhibition of MMP8 using (7-methoxycoumarin-4-yl)acetyl-Pro-Leu-Gly-Leu-(3-(2,4-dinitrophenyl)-L-2,3-diaminopropionyl)Ala-Arg-NH2 as substrate incubated for 30 mins prior to substrate addition measured for 10 mins by fluorometry
Sequence (P22894 whole entry): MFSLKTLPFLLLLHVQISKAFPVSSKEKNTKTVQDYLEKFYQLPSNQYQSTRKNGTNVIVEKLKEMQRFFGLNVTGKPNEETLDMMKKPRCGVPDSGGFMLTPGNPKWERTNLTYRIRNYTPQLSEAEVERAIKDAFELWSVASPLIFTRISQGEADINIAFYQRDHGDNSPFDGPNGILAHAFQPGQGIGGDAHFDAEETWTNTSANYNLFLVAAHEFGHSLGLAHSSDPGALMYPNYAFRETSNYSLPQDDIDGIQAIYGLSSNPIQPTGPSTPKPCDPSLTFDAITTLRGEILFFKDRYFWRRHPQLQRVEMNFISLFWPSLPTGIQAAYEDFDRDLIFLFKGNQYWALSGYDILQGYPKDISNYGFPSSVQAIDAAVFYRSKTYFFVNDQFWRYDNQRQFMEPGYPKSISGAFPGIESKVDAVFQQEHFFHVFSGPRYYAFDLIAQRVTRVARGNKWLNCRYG
Form field: IC50 (one value per entry).
// note: answer is a bare numeric in nM

# count of solved cases: 5
Smiles | Target or test system | IC50 [nM]
COc1ccc(S(=O)(=O)N(Cc2cn(CCF)nn2)[C@@H](C(=O)NO)C(C)C)cc1 | Neutrophil collagenase (Homo sapiens, UniProt P22894) | 0.02
COc1ccc(S(=O)(=O)N(Cc2ccc(OCCOCCOCCOCCOCc3cn(CCOCCOCCOCCF)nn3)cc2)[C@@H](C(=O)NO)C(C)C)cc1 | Neutrophil collagenase (Homo sapiens, UniProt P22894) | 5
C#CCOCCOCCOCCOCCOc1ccc(CN([C@@H](C(=O)NO)C(C)C)S(=O)(=O)c2ccc(OC)cc2)cc1 | Neutrophil collagenase (Homo sapiens, UniProt P22894) | 0.11
COc1ccc(S(=O)(=O)N(Cc2cn(CCOCCOCCOCCOS(=O)(=O)c3ccc(C)cc3)nn2)[C@@H](C(=O)NO)C(C)C)cc1 | Neutrophil collagenase (Homo sapiens, UniProt P22894) | 0.03
COc1ccc(S(=O)(=O)N(Cc2cn(CCOCCOCCOCCOc3cccnc3F)nn2)[C@@H](C(=O)NO)C(C)C)cc1 | Neutrophil collagenase (Homo sapiens, UniProt P22894) | 5

### Prompt Field request: IC50 | item: COc1ccc(S(=O)(=O)N(Cc2cn(CCOCCOCCOCCN=[N+]=[N-])nn2)[C@@H](C(=O)NO)C(C)C)cc1
### Response 9

### Prompt Field request: IC50 | item: COc1ccc(S(=O)(=O)N(Cc2cn(CCOS(=O)(=O)c3ccc(C)cc3)nn2)[C@@H](C(=O)NO)C(C)C)cc1
### Response 8

====

Parameter IC50, tested on Collagenase 3 (Homo sapiens, UniProt P45452), listed per item.

Smiles | IC50
C#CCOCCOCCOCCOCCOc1ccc(CN([C@@H](C(=O)NO)C(C)C)S(=O)(=O)c2ccc(OC)cc2)cc1 | 0.09 nM

### Prompt Field request: IC50 | item: COc1ccc(S(=O)(=O)N(Cc2ccc(OCCOCCOCCOCCOCc3cn(CCOCCOCCOCCF)nn3)cc2)[C@@H](C(=O)NO)C(C)C)cc1
### Response 4 nM

### Prompt Field request: IC50 | item: COc1ccc(S(=O)(=O)N(Cc2cn(CCOCCOCCOCCOS(=O)(=O)c3ccc(C)cc3)nn2)[C@@H](C(=O)NO)C(C)C)cc1
### Response 0.02 nM

### Prompt Field request: IC50 | item: COc1ccc(S(=O)(=O)N(Cc2ccc(OCCOCCOCCOCCOCc3cn(CCF)nn3)cc2)[C@@H](C(=O)NO)C(C)C)cc1
### Response 6 nM

### Prompt Field request: IC50 | item: COc1ccc(S(=O)(=O)N(Cc2cn(CCOCCOCCOCCN=[N+]=[N-])nn2)[C@@H](C(=O)NO)C(C)C)cc1
### Response 6 nM

### Prompt Field request: IC50 | item: COc1ccc(S(=O)(=O)N(Cc2cn(CCOCCOCCOCCn3cc(CN([C@@H](C(=O)NO)C(C)C)S(=O)(=O)c4ccc(OC)cc4)nn3)nn2)[C@@H](C(=O)NO)C(C)C)cc1
### Response > 100000 nM

### Prompt Field request: IC50 | item: COc1ccc(S(=O)(=O)N(Cc2cn(CCOS(=O)(=O)c3ccc(C)cc3)nn2)[C@@H](C(=O)NO)C(C)C)cc1
### Response 5 nM

====

experiment: Octanol-water partition coefficient, log D of the compound after 1 min by gamma-counting at pH 7.4; format: physicochemical
Assay readout: logD at 1 min
Just the number.

### Prompt Field request: logD at 1 min | item: COc1ccc(S(=O)(=O)N(Cc2cn(CC[18F])nn2)[C@@H](C(=O)NO)C(C)C)cc1
### Response 0.6

====

Parameter pIC50, tested on 72 kDa type IV collagenase (Homo sapiens, UniProt P08253), listed per item.
Sequence (P08253 whole entry): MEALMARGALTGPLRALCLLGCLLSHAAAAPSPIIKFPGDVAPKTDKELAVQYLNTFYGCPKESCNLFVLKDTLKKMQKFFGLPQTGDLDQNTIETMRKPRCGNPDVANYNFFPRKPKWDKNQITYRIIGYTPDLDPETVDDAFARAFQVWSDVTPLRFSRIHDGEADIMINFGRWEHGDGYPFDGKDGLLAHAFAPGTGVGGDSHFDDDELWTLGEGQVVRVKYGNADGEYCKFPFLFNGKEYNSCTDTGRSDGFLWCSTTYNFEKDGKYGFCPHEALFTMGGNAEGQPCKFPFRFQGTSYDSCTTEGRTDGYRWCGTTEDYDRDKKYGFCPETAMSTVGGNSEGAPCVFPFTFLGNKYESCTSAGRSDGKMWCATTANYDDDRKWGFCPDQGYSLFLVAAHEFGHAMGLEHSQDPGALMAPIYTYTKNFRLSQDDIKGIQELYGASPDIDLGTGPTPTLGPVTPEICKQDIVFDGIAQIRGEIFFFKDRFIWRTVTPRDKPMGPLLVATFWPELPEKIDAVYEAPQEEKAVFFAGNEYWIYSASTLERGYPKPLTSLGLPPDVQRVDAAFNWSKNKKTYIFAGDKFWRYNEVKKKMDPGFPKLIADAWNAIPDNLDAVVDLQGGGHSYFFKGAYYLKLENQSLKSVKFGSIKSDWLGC
// scale note: pIC50 = -log10(conc_M); give the bare number

Smiles | Measured number
COc1ccc(S(=O)(=O)N(Cc2cn(CCOS(=O)(=O)c3ccc(C)cc3)nn2)[C@@H](C(=O)NO)C(C)C)cc1 | 6.97
COc1ccc(S(=O)(=O)N(Cc2cn(CCOCCOCCOCCOc3cccnc3F)nn2)[C@@H](C(=O)NO)C(C)C)cc1 | 8.52

### Prompt Field request: pIC50 | item: C#CCOCCOCCOCCOCCOc1ccc(CN([C@@H](C(=O)NO)C(C)C)S(=O)(=O)c2ccc(OC)cc2)cc1
### Response 9.46
